Attribution: PubChem BioAssay AID1159580

- test-description: chemical genetic growth profiling, strain panel (AID 1159580);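 note: tested at 20 µM; growth read once vehicle control cultures reached saturation at 30 °C; 1 = growth at the plate median or of vehicle wells; lower values mean less growth of the strain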
- condition-summary: S. cerevisiae deletion strains, growth OD, locus YJL134W, strain LCB3, hits give low values
The campaign covered roughly 5,500 compounds. About 2,000 (36%) were called active. Another 18% or so got no clear call; they are omitted. The list shows a part of the results.
quantity: normalized growth
// print number alone

// below: answered molecules
> print(dat)
                                   molecule  reading
1  CC1(C)O[C@@H]2CC3C4C[C@H](F)C5=CC(=O)CC[C@]5(C)C4[C@@H](O)C[C@]3(C)[C@]2(C(=O)CO)O1 (stereo partly specified)     1.01
2            NC(=O)c1ccc([N+](=O)[O-])cc1Cl    0.975
3  CC(C)=CC1C(CO)C1(C)C (stereo unspecified)     1.02

Exercise: Requested read-out: normalized growth. Entry: "C/C=C(\C)C(=O)O[C@@H]1c2c(ccc3ccc(=O)oc23)OC(C)(C)[C@@H]1OC(C)=O"
Solution: 0.996

###

- test-description: chemical genetic growth profiling, strain panel (AID 1159580);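 note: tested at 20 µM; growth read once vehicle control cultures reached saturation at 30 °C; 1 = growth at the plate median or of vehicle wells; lower values mean less growth of the strain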
- condition-summary: S. cerevisiae deletion strains, growth OD, locus YBR231C, strain swc5
Screen size: about 5,500 compounds; about 2,000 (36%) were called active. Not shown: some 18% with an inconclusive outcome. No stated cut-off is given here; in the data, active means normalized growth mostly below about 0.91 (no sharp cut-off); inconclusive means no clear call, values can overlap the other calls; inactive means mostly above about 0.92. The list shows a part of the results.
Hi! Could you answer with just one of these? active, inactive

molecule	category
O=C(Oc1cccc2cccnc12)c1ccccc1	inactive
CO[C@H]1[C@@H](O)[C@@H](C)O[C@H](O[C@H]2CCC3(C)C4CCC5(C)[C@@H](C6=CC(=O)OC6)CC[C@]5(O)[C@@H]4CC[C@]3(O)C2)[C@@H]1O (some centres undefined)	inactive
CC[C@@]1(O)C(=O)OCc2c1cc1n(c2=O)Cc2cc3cc(O)ccc3nc2-1	inactive

Exercise: Just curious, what result did C[C@]12CCC3C(CC[C@]4(O)C[C@@H](O)CC[C@]34C=O)[C@@]1(O)CCC2C1=CC(=O)OC1 (some centres undefined) get here?
Solution: inactive

Exercise: Likewise for "O=S(=O)(O)O" ?
Solution: inactive

Exercise: Likewise for CC(=O)O[C@@H]1CC2C(C)(CC[C@H](O)C2(C)C)C2CC[C@]3(C)C(=CC(=O)O[C@H]3c3ccoc3)C21C (some centres undefined) ?
Solution: inactive

Exercise: Likewise for "N#Cc1c(Cl)cccc1Cl" ?
Solution: inactive

Exercise: Likewise for "NC(=O)c1ccc([N+](=O)[O-])cc1Cl" ?
Solution: inactive

Exercise: Likewise for COC1CC(OC2CCC3(C)C(CCC4C3CCC3(C)C(C5=CC(=O)OC5)C(OC(C)=O)CC43O)C2)OC(C)C1O (centres undefined) ?
Solution: inactive

Exercise: Likewise for COC1CC(O[C@H]2CC[C@]3(C=O)C4CC[C@]5(C)C(C6=CC(=O)OC6)CC[C@]5(O)C4CC[C@]3(O)C2)OC(C)C1O (some centres undefined) ?
Solution: inactive

Exercise: Likewise for "Cc1ncc(CO)c(CO)c1O" ?
Solution: inactive

Exercise: Likewise for "CC[C@@]1(O)C(=O)OCc2c1cc1n(c2=O)Cc2cc3ccccc3nc2-1" ?
Solution: active

###

- test-description: chemical genetic growth profiling, strain panel (AID 1159580);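 note: tested at 20 µM; growth read once vehicle control cultures reached saturation at 30 °C; 1 = growth at the plate median or of vehicle wells; lower values mean less growth of the strain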
- condition-summary: S. cerevisiae deletion strains, growth OD, locus YKR091W, strain srl3, hits give low values
About 2,000 (36%) of roughly 5,500 compounds were called active. Roughly 18% stayed inconclusive and do not appear here. Some of the results follow.
quantity: normalized growth

// below: answered molecules
molecule	normalized growth
CC1=C2C(O)C(=O)OC3CC4C(C)(C)C(=O)C=C[C@]4(C)C(CC1)[C@]23C (some centres not stated)	1.01 (inactive)
C[C@H]1[C@H](C)CC[C@]2(C(=O)O)CC[C@]3(C)C(=CCC4[C@@]5(C)C[C@@H](O)[C@H](O)[C@@](C)(CO)C5CC[C@]43C)[C@H]12 (some centres not stated)	1.02 (inactive)
CC1(C)S[C@@H]2[C@H](NC(=O)[C@@H](N)c3ccc(O)cc3)C(=O)N2[C@H]1C(=O)O	1 (inactive)
CC(C)=CC1C(CO)C1(C)C (configuration not stated)	1.02 (inactive)
COc1cc(O)c2c(=O)cc(-c3ccc(OC)c(-c4c(O)cc(O)c5c(=O)cc(-c6ccc(O)cc6)oc45)c3)oc2c1	1.01 (inactive)

Exercise: Requested read-out: normalized growth. Entry: "CCCc1nc(C)c2c(=O)[nH]c(-c3cc(S(=O)(=O)N4CCN(CC)CC4)ccc3OCC)nn12"
Solution: 0.977 (inactive)

Exercise: Likewise for "CC[C@@]1(O)C(=O)OCc2c1cc1n(c2=O)Cc2cc3cc(O)ccc3nc2-1" ?
Solution: 1.01 (inactive)

Exercise: Likewise for "COc1cc(-c2cc(=O)c3c(O)c(OC)c(OC)c(OC)c3o2)cc(OC)c1OC" ?
Solution: 1.01 (inactive)

Exercise: Likewise for Cc1c(OCC(F)(F)F)ccnc1CS(=O)c1nc2ccccc2[nH]1 (configuration not stated) ?
Solution: 1.01 (inactive)

Exercise: Likewise for "CCCc1nn(C)c2c(=O)[nH]c(-c3cc(S(=O)(=O)N4CCN(C)CC4)ccc3OCC)nc12" ?
Solution: 0.987 (inactive)

Exercise: Likewise for "Oc1ccc([C@H]2Oc3cc(O)cc(O)c3C[C@H]2O)cc1" ?
Solution: 0.992 (inactive)

Exercise: Likewise for "CN[C@H]1CC[C@@H](c2ccc(Cl)c(Cl)c2)c2ccccc21" ?
Solution: 1.02 (inactive)
